Target: T1, 006 PSMA Fab (biotinylated (site not stated))
T1 construct: Biotinylated PSMA Fab captured on neutravidin coated plates in the panning ELISA; also called Anti-PSMA Fab
Test: clonal phage ELISA on captured PSMA Fab, wells pre-incubated with PSMA antigen as competitor
Where no end group is shown, it is not given here.
readout: phage binding ELISA signal in presence of PSMA antigen

binder	observed.value
ENHWCRPMWMCETI (Clone of the Peptide-180 optimisation library, tested as clonal phage supernatant (peptide fused to pIII of the bacteriophage)) [Phage-2764]	0.0683
DVTWCIPPWMCMYN (Clone of the Peptide-180 optimisation library, tested as clonal phage supernatant (peptide fused to pIII of the bacteriophage)) [Phage-2767]	0.0814
FEKWCTPTWMCWPY (Clone of the Peptide-180 optimisation library, tested as clonal phage supernatant (peptide fused to pIII of the bacteriophage)) [Phage-2763]	0.0829
MQKMCIPTWMCDGL (Clone of the Peptide-180 optimisation library, tested as clonal phage supernatant (peptide fused to pIII of the bacteriophage)) [Phage-2759]	0.0817
AHNWCTPAWMCMWD (cysteine pairing not given here; also: fused to pIII, displayed on bacteriophage, Clone of the Peptide-180 optimisation library, tested as clonal phage supernatant (peptide fused to pIII of the bacteriophage)) [Phage-2756]	0.0753
MVHWCTPSWMCSAL (Clone of the Peptide-180 optimisation library, tested as clonal phage supernatant (peptide fused to pIII of the bacteriophage); Row read against Peptide-180: MVHWCTPSWMCSAL) [Phage-2758]	0.1
WINWCTPQWMCADL (cysteine pairing not given here; also: fused to pIII, displayed on bacteriophage, Clone of the Peptide-180 optimisation library, tested as clonal phage supernatant (peptide fused to pIII of the bacteriophage)) [Phage-2762]	0.13
PVKMCTPAWMCSER (Clone of the Peptide-180 optimisation library, tested as clonal phage supernatant (peptide fused to pIII of the bacteriophage)) [Phage-2760]	0.0866

Data provenance: patent US20260242478A1
